test system: Candida albicans (CA); test: MIC and MFC, broth microdilution, CA (Table 1); type: cell-based; settings: Candida albicans, MFC, value in parentheses
test_readout: MBC (µg/mL)
Provide only the numeric value, understood in µg/mL.

Look over these answered cases.
- compound: "CCCCCCCCCC(=O)OC[C@H](O)COC(=O)CC[C@@H](C)[C@H]1CC[C@H]2[C@@H]3[C@H](OC(=O)CCN)C[C@@H]4C[C@H](OC(=O)CCN)CC[C@]4(C)[C@H]3C[C@H](OC(=O)CCN)[C@]12C [CSA-4110S]"
  meas_value: 8
- compound: "CCCCCCCC(=O)OCC(O)COC(=O)CC[C@@H](C)[C@H]1CC[C@H]2[C@@H]3[C@H](OC(=O)CCN)C[C@@H]4C[C@H](OC(=O)CCN)CC[C@]4(C)[C@H]3C[C@H](OC(=O)CCN)[C@]12C (stereo partly shown)"
  meas_value: 16
- compound: "CCCCCCCCCCCCCC(=O)OCC(O)COC(=O)CC[C@@H](C)[C@H]1CC[C@H]2[C@@H]3[C@H](OC(=O)CCN)C[C@@H]4C[C@H](OC(=O)CCN)CC[C@]4(C)[C@H]3C[C@H](OC(=O)CCN)[C@]12C (stereo partly shown)"
  meas_value: 64

Now examine the next entry.
Quick one: MBC of CCCCCC(=O)OCC(COC(=O)CC[C@@H](C)[C@H]1CC[C@H]2[C@@H]3[C@H](OC(=O)CCN)C[C@@H]4C[C@H](OC(=O)CCN)CC[C@]4(C)[C@H]3C[C@H](OC(=O)CCN)[C@]12C)OC(=O)CCCCC (stereo partly shown) ? 8

Source of measurements: patent US20250073248A1
